Where these numbers come from: PubChem BioAssay AID1963862

- System: KRAS patient-derived spheroids with HUVEC/MSC, viability
- test_description: Anticancer human tumor 941728-121-R-J1-PDC patient-derived lung adenocarcinoma cell line growth inhibition [KRAS2]
- settings: second compound 1 µM; first compound 3.16 µM; stronger effect = lower value
- Description: Multicellular complex tumor spheroid response to RAS pathway inhibitors in combination with a targeted agents in patient-derived cell lines with oncogenic KRAS variants from multiple cancer types A high-throughput screen of multi-cell type tumor spheroids was designed to identify active combinations of targeted small molecules and KRAS pathway inhibitors. […] Compounds. […] If the clinical Cmax for an agent had not been determined, the highest concentration tested was 10 microM. […]
quantity: viability, T/C (%)
Give the number; % is assumed, so skip it.

Here is how some compounds turned out for viability, T/C.
- CC1COCCN1c1cc(-c2ccnn2C)c2ccnc(-c3ccn[nH]3)c2n1 (configuration not stated) + COc1cc2nc(C)nc(NC(C)c3cc(N)cc(C(F)(F)F)c3)c2cc1OC1CCOC1: 18.6
- COC(=O)c1ccc2c(C(=Nc3ccc(N(C)C(=O)CN4CCN(C)CC4)cc3)c3ccccc3)c(O)[nH]c2c1 + COc1cc2nc(C)nc(NC(C)c3cc(N)cc(C(F)(F)F)c3)c2cc1OC1CCOC1: 35.1

Find the recorded viability, T/C belonging to CC1(C)CCC(CN2CCN(c3ccc(C(=O)NS(=O)(=O)c4ccc(NCC5CCOCC5)c([N+](=O)[O-])c4)c(Oc4cnc5[nH]ccc5c4)c3)CC2)=C(c2ccc(Cl)cc2)C1 + CC1OCC2(CCN(c3cnc(Sc4ccnc(N)c4Cl)c(N)n3)CC2)C1N and report it.
5.85

Quick one: viability, T/C for COc1cc2nccc(Oc3ccc(NC(=O)C4(C(=O)Nc5ccc(F)cc5)CC4)cc3)c2cc1OC + C=CC(=O)N1CCN(c2nc(=O)n(-c3c(C)ccnc3C(C)C)c3nc(-c4c(O)cccc4F)c(F)cc23)C(C)C1 ?
6.93

* * *

# Lookup of reported viability, T/C keyed by entry
- Tested on: KRAS patient-derived spheroids with HUVEC/MSC, viability
- test_description: Anticancer human tumor 941728-121-R-J1-PDC cell line growth inhibition [KRAS2];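 also: spheroids exposed to agents for seven days before readout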
- settings: second compound 3.16 µM; first compound 1 µM; stronger effect = lower value
Report only the number, with the unit % understood.

- CC(=O)OC12COC1CC(O)C1(C)C(=O)C(O)C3=C(C)C(OC(=O)C(O)C(NC(=O)OC(C)(C)C)c4ccccc4)CC(O)(C(OC(=O)c4ccccc4)C21)C3(C)C (centres undefined) + COc1cc2nc(C)nc(NC(C)c3cc(N)cc(C(F)(F)F)c3)c2cc1OC1CCOC1: 32.7
- COc1cc2nccc(Oc3ccc(NC(=O)C4(C(=O)Nc5ccc(F)cc5)CC4)cc3)c2cc1OC + COc1cc2nc(C)nc(NC(C)c3cc(N)cc(C(F)(F)F)c3)c2cc1OC1CCOC1: 3.69

What viability, T/C value was documented for this molecule, CC1COCCN1c1cc(-c2ccnn2C)c2ccnc(-c3ccn[nH]3)c2n1 (centres undefined) + CNCc1ccccc1-c1csc(C(C)Nc2nc(C)nc3cc(OC)c(OC)cc23)c1 ?
0.45

Quick check: viability, T/C of CC(=O)OC12COC1CC(O)C1(C)C(=O)C(O)C3=C(C)C(OC(=O)C(O)C(NC(=O)OC(C)(C)C)c4ccccc4)CC(O)(C(OC(=O)c4ccccc4)C21)C3(C)C (centres undefined) + CNCc1ccccc1-c1csc(C(C)Nc2nc(C)nc3cc(OC)c(OC)cc23)c1 ?
0.1
